- Target system: JAK3 (Homo sapiens, UniProt P52333)
- Construct: made in house; host or cells: SF9 insect cells (baculovirus)
- Sequence (P52333 783-1124): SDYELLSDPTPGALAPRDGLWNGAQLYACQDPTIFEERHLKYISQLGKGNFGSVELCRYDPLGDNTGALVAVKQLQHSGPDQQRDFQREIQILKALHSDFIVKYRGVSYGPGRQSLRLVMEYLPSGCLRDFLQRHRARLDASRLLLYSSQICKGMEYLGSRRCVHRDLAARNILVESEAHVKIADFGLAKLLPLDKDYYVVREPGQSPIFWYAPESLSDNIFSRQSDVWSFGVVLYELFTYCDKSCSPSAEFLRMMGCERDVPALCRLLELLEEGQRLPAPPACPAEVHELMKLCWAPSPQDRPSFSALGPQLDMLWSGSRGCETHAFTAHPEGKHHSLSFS
- Assay method text: JAK3 inhibition (Table 4)
- Assay type: biochemical
- Measurement conditions: read-out: JAK3 Ki
List of pKi values.
pKi is a log-scale quantity: -log10 of the concentration expressed in molar.

Below, each entry is followed by its recorded pKi result.
C[C@@H](O)c1nc2cnc3[nH]ccc3c2n1[C@H]1CC[C@H](NCC(F)(F)F)C1 = 7.01
COCCNC1CCC(n2c(C)nc3cnc4[nH]ccc4c32)C1 (racemic) = 6.10
COC[C@H]1CC[C@H](n2c(CNS(C)(=O)=O)nc3cnc4[nH]ccc4c32)CC1 = 6.82

Moving on to another molecule below.
Ask: Identify the measured pKi of `CS(=O)(=O)NCCc1nc2cnc3[nH]ccc3c2n1C1CCN(CCC#N)CC1` for JAK3 (Homo sapiens, UniProt P52333).
Result: 7.63

* * *

- Target system: JAK1 (Homo sapiens, UniProt P23458)
- Construct: made in house; host or cells: SF9 insect cells (baculovirus)
- Sequence (P23458 852-1154): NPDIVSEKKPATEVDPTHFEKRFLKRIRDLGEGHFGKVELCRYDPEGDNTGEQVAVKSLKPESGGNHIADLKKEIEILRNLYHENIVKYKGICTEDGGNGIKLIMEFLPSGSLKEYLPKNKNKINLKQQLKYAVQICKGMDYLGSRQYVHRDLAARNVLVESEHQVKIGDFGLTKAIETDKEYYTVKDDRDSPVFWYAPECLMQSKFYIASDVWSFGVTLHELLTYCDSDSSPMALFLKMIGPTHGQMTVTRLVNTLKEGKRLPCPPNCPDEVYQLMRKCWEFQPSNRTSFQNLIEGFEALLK
- Assay method text: JAK1 inhibition (Table 4)
- Format: biochemical
- Measurement conditions: read-out: JAK1 Ki
Measurement name: Ki (nM)
State just the number; it will be interpreted in nM.

Below, each entry is followed by its recorded Ki result.
CNC(=O)OC1CCC(n2cnc3cnc4[nH]ccc4c32)CC1 (stereo not drawn) [Example 769] = 9.6
C[C@@H](O)c1nc2cnc3[nH]ccc3c2n1[C@H]1CCN(S(C)(=O)=O)C1 [Example 930] = 87.2
C[C@@H](O)c1nc2cnc3[nH]ccc3c2n1C1CCC(CC#N)CC1 (stereo partly drawn) [Example 743] = 0.59
N#CCCN1CCC(n2c(CC(=O)N3CCS(=O)(=O)CC3)nc3cnc4[nH]ccc4c32)CC1 [Example 267] = 7.52
CC1CC(n2cnc3cnc4[nH]ccc4c32)CCN1 (racemic) [Example 229] = 48.7

Ask: Looking for the measured Ki of COCCC(=O)N[C@H]1CC[C@H](n2cnc3cnc4[nH]ccc4c32)CC1 [Example 573] , can you help?
Result: 4.62

Ask: Looking for the measured Ki of CC1CNCCC1n1cnc2cnc3[nH]ccc3c21 (racemic) [Example 312] , can you help?
Result: 47.6

Ask: Looking for the measured Ki of OCc1nc2cnc3[nH]ccc3c2n1C1CCN(CCF)CC1 [Example 508] , can you help?
Result: 2.14

Ask: Looking for the measured Ki of O=C1CC2CCC(n3cnc4cnc5[nH]ccc5c43)CC2N1 (racemic) [Example 111] , can you help?
Result: 4.87

* * *

- Target system: JAK1 (Homo sapiens)
- Construct: made in house; host or cells: SF9 insect cells (baculovirus)
- Assay method text: JAK1 inhibition (Table 4)
- Type: biochemical
- Measurement conditions: read-out: JAK1 Ki
just bin them by Ki: A = under 3 nM, B = from 3 nM up to 80 nM, C = 80 nM and over

O=S(=O)(CCC(F)(F)F)NCCc1nc2cnc3[nH]ccc3c2n1C1CCCCC1 = A
CC(O)c1nc2cnc3[nH]ccc3c2n1C1CCN(CCC(F)(F)F)CC1 (stereo not drawn) = B
Cc1nc2cnc3[nH]ccc3c2n1C1CCN(CC(F)F)CC1 = A

Ask: Would you mind sorting `COCCN1CCC[C@@H](n2cnc3cnc4[nH]ccc4c32)C1` into the appropriate category?
Result: C

Ask: Would you mind sorting `FC(F)(F)c1nc2cnc3[nH]ccc3c2n1[C@@H]1CCCNC1` into the appropriate category?
Result: C

Ask: Would you mind sorting `C[C@@H](O)c1nc2cnc3[nH]ccc3c2n1C1CCN(Cc2cncn2C)CC1` into the appropriate category?
Result: B

Ask: Would you mind sorting `C[C@@H](O)c1nc2cnc3[nH]ccc3c2n1[C@@H]1CCCN(C(=O)CC#N)C1` into the appropriate category?
Result: B

Ask: Would you mind sorting O=C1CCC2(CCC(n3cnc4cnc5[nH]ccc5c43)CC2)N1 (stereo not drawn) into the appropriate category?
Result: B
